tgt: BChE (EC 3.1.1.8, from equine serum) (Equus caballus)
Construct: purchased Sigma-Aldrich (St. Louis, MO, USA); host or cells: equine serum
protocol_summary: biochemical
observable: pIC50
Lab note — pIC50 values are minus log10 of concentrations in M.

Query :: Please indicate pIC50 recorded for C[n+]1cccc(C(=O)[O-])c1
Result :: 3.35

* * *

# IC50 per record follows
tgt: BChE (EC 3.1.1.8, from equine serum) (Equus caballus, UniProt P81908)
Construct: purchased Sigma-Aldrich (St. Louis, MO, USA); host or cells: equine serum
Sequence (P81908 whole entry): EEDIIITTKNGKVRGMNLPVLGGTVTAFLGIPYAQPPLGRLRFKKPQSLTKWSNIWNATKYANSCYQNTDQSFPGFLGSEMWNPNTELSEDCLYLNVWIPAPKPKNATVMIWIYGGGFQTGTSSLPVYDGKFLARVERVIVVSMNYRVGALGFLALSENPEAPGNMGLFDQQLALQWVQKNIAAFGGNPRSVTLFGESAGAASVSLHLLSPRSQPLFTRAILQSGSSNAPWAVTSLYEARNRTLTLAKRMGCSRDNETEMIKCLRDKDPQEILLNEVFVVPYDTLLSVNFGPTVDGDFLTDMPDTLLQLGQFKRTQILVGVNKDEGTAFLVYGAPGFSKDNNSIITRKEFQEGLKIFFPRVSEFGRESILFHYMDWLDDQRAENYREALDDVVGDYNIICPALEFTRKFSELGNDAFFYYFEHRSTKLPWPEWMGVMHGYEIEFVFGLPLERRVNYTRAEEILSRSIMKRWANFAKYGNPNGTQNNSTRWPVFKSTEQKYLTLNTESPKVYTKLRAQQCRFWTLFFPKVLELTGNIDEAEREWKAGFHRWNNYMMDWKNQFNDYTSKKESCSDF
protocol_summary: biochemical
condition_label: means ± SD, at least three independent experiments; read-out: IC50 BChE
Dear colleague, please return just the value in µM, with no unit written.

Query :: Please indicate IC50 recorded for N=C(N)NCCCCNC(=O)c1ccccn1 [Compound 2, N-(4-guanidinobutyl)picolinamide]
Result :: 123

Query :: Please indicate IC50 recorded for N=C(N)NCCCCNC(=O)c1ccc(O)cc1 [Compound 1, N-(4-guanidinobutyl)-4-hydroxybenzamide]
Result :: 47.4

Then there is this compound:
Query :: Please indicate IC50 recorded for CC(C)CCSS [Compound 4, 3-methylbuthyl hydrodisulfide]
Result :: 153
